B1: SMARCE1 (parent)
chain: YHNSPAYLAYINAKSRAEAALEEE

- Variants of: B1
- assay_details: protein stability index of a GFP-peptide fusion (GPS, HEK-293T) (PSI 1-6); higher = more stable;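 also: lentivirally expressed fusions sorted by FACS into six bins by GFP to DsRed ratio, PSI derived from sequencing read proportions per bin multiplied by bin number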
- condition_set: c terminus: a fixed tail appended
# protein stability index per entry
observable: protein stability index

construct_sequence: YHNSPAYLAYIRAKSRAEAALEEE [N12R]
quantitative_result: 2.04

construct_sequence: YHNSPAYLAYINAKMRAEAALEEE [S15M]
quantitative_result: 2.14

construct_sequence: YHNSPAYLAYINAKSRCEAALEEE [A17C]
quantitative_result: 2.1

construct_sequence: YHNSPAPLAYINAKSRAEAALEEE [Y7P]
quantitative_result: 2.98

construct_sequence: YHNSPAYLAYINAKSDAEAALEEE [R16D]
quantitative_result: 2.4

construct_sequence: YHNSPAYLAYINAKSRAEAALEPE [E23P]
quantitative_result: 2.58

construct_sequence: YHNSPAYLAYIMAKSRAEAALEEE [N12M]
quantitative_result: 2.33

construct_sequence: YHNSPAYLAQINAKSRAEAALEEE [Y10Q]
quantitative_result: 2.19

construct_sequence: YHNSPAYLAYINLKSRAEAALEEE [A13L]
quantitative_result: 2.21

construct_sequence: YHNSPAYLAYINAKYRAEAALEEE [S15Y]
quantitative_result: 1.62

construct_sequence: YHNSPHYLAYINAKSRAEAALEEE [A6H]
quantitative_result: 2.3

construct_sequence: YHNSPGYLAYINAKSRAEAALEEE [A6G]
quantitative_result: 2.37

construct_sequence: YKNSPAYLAYINAKSRAEAALEEE [H2K]
quantitative_result: 5.07

construct_sequence: YHNSPAYLAYINAKSRAEAELEEE [A20E]
quantitative_result: 2.32

construct_sequence: YHNSPAYLAPINAKSRAEAALEEE [Y10P]
quantitative_result: 2.11

construct_sequence: YHNSPAYLAYINYKSRAEAALEEE [A13Y]
quantitative_result: 2.13

construct_sequence: YHFSPAYLAYINAKSRAEAALEEE [N3F]
quantitative_result: 1.81

construct_sequence: YHNSPAWLAYINAKSRAEAALEEE [Y7W]
quantitative_result: 2.31

construct_sequence: YHNSPAYLAYINAVSRAEAALEEE [K14V]
quantitative_result: 2.15

construct_sequence: YHNDPAYLAYINAKSRAEAALEEE [S4D]
quantitative_result: 3.31

construct_sequence: YHNSPAYLAYINAKSRAEAAQEEE [L21Q]
quantitative_result: 2.07

construct_sequence: YHNSPAYLAYINAKSRAECALEEE [A19C]
quantitative_result: 2.84
